# study target: T-cell receptor (TCR)-CD3 interaction, human (TCR alpha chain TRAV4)
# assay notes: potency of TCR-CD3 interaction inhibitors, dose response, biochemical, fluorescence, TAMRA-labeled TCR probe (AID 686957)
# test conditions: TCR-CD3 binding
Active and inactive are the calls of the source. No rule for the calls is given here.
quantity measured: IC50

Some solved entries appear below for comparison.
- O=c1cc(-c2ccc(O)cc2)oc2c(O)c(O)c(O)c(O)c12: > 94.2 µM (inactive)
- CCn1c(C)nc2cc(C(=O)NNC(=S)NC(=O)c3ccccc3)ccc21: > 94.1 µM (inactive)
- O=c1c(CO)cc(CO)cc(CO)c1O: inactive
- Cc1ccc(/C=C2\SC(=S)N(CCCC(=O)NNC(=O)c3ccccc3O)C2=O)cc1: > 94.1 µM (inactive)
- CC1CCCC(C)N1/N=C/c1ccc(O)c(O)c1 (centres undefined): > 94.1 µM (inactive)
- CC(C)C(=O)Nc1ccc(C(=O)NNC(=S)NC(=O)c2ccco2)cc1: > 94.1 µM (inactive)
- CC(=O)c1cccc(NC(=O)C(OC(=O)c2cccc(S(=O)(=O)N(C)c3ccccc3)c2)c2ccccc2)c1 (centres undefined): inactive
- Nc1c(C(=O)NCC2CCCO2)sc2nc3c(c(-c4ccco4)c12)CC/C3=C\c1ccco1 (centres undefined): inactive
- O=C(CCCN1C(=O)/C(=C/c2cccs2)SC1=S)NNC(=O)c1ccccc1O: > 94.1 µM (inactive)
- CC1(C)CC2CC(C)(CN2S(=O)(=O)c2ccc(C(=O)Nc3cccc(S(=O)(=O)N4CCOCC4)c3)cc2)C1 (centres undefined): inactive

Batch: IC50 for all items listed.
1. O=C(NNC(=O)c1ccc2ccccc2c1O)NC1CCCCC1
2. CNC(=S)NNC(=O)c1cccn(Cc2cccc(C(F)(F)F)c2)c1=O
3. Cc1cc([N+](=O)[O-])cc(/C=N/n2c(C)nc3ccccc3c2=O)c1O
4. Nc1nnc(CC(=O)N/N=C\c2cc([N+](=O)[O-])ccc2O)s1

["> 94.1 µM (inactive)", "> 94.1 µM (inactive)", "> 94 µM (inactive)", "> 94.1 µM (inactive)"]

Batch: IC50 for all items listed.
1. O=C(N/N=C/c1cc(Br)cc(Cl)c1O)c1ccc2c(c1)OCO2
2. COC(=O)Nc1ccc(S(=O)(=O)NNC(=O)c2c(O)c3ccccc3[nH]c2=O)cc1
3. CC(=O)NNC(=S)NC(=O)c1ccc(C)cc1
4. O=C(CN1C(=O)S/C(=C\c2ccccc2)C1=O)NNC(=O)c1ccccc1O

> 94.1 µM (inactive)
> 94.1 µM (inactive)
> 94 µM (inactive)
> 94.1 µM (inactive)

* * *

# study target: T-cell receptor (TCR)-CD3 interaction, human (TCR alpha chain TRAV4)
# assay notes: potency of TCR-CD3 interaction inhibitors, dose response, biochemical, fluorescence, TAMRA-labeled TCR probe (AID 686957)
# test conditions: TCR-CD3 binding
Activity calls are given as the source filed them. No rule for the calls is given here.
Could you please pick one outcome from this set? active, inactive

- O=C(CSc1nc2ccccc2s1)N/N=C/c1cc([N+](=O)[O-])ccc1O: inactive
- Cc1ccc(O)c(/C=N/NC(=O)COc2ccc3c(C)cc(=O)oc3c2)c1: inactive
- O=[N+]([O-])c1ccc(O)c(/C=N/NC(=S)Nc2ccc(Cl)cc2Cl)c1: inactive

Which outcome did this test record for the molecule Cc1cccc(-n2c(O)c(/C=N/NC(=O)c3ccccc3Cl)c3ccccc3c2=O)n1 ?
inactive

Which outcome did this test record for the molecule COC(=O)Nc1ccc(S(=O)(=O)NNC(=O)c2c(O)c3ccccc3n(C)c2=O)cc1 ?
inactive

Which outcome did this test record for the molecule O=c1c2ccccc2c(C=Nc2ccccc2O)c(O)n1-c1nccs1 ?
inactive

Which outcome did this test record for the molecule Nc1ccc2nc3c(=O)[nH]c(=S)[nH]c3nc2c1 ?
active

Which outcome did this test record for the molecule Cc1ccc(-c2[nH]c3cc(C(=O)NCCCn4ccnc4)ccc3c(=O)c2O)cc1 ?
inactive
